quantity_name: melting point

Study these solved cases before continuing.
>  <compound>
CCCc1nc2c(N)nc3cc(OCCCNS(C)(=O)=O)ccc3c2s1

>  <quantity_name>
melting point

>  <observed_result>
168 to 171 °C

$$$$
>  <compound>
O=C(Nc1cc(F)ccc1F)c1cc(-c2ccc(F)cc2F)ccc1O

>  <quantity_name>
melting point

>  <observed_result>
213 to 214 °C

$$$$
>  <compound>
CCCCC(=Nc1sccc1C(=O)NCCC)OC

>  <quantity_name>
melting point

>  <observed_result>
68 to 70 °C

$$$$

### Prompt Would you mind telling me what melting point value was observed for CSC1=NCCN1CC(C)O (stereo unspecified) ?
### Response 114 to 116 °C

### Prompt Would you mind telling me what melting point value was observed for `CCCCCCNc1ccncc1` ?
### Response 68 to 70 °C

### Prompt Would you mind telling me what melting point value was observed for `CCOC(=O)c1cnc2c(C)cc(-c3ccc(Cl)cc3)cn12` ?
### Response 147 °C

* * *

quantity_name: melting point

>  <mol>
NC(=O)N1C(=O)C(=C(OC(=O)c2ccc(C(=O)OCc3ccccc3)cc2)c2cccs2)c2cc(F)c(Cl)cc21

>  <melting point>
212 to 218 °C

$$$$
>  <mol>
CSC(=S)N1CCN(CC2=C(C)C(=O)C(C)=C(C)C2=O)CC1

>  <melting point>
133 to 135 °C

$$$$
>  <mol>
Cc1cc2ccccc2n1-c1ccc(OCc2ccccc2)cc1

>  <melting point>
95 to 96 °C

$$$$

### Prompt Would you mind telling me what melting point value was observed for `COc1ccc(NC(=O)c2c[nH]c3c2C(=O)CC(C)(C)C3)c(F)c1` ?
### Response 203 to 205 °C

### Prompt Would you mind telling me what melting point value was observed for `CS(=O)(=O)N1CCC(=C2c3ccccc3CCc3cccnc32)CC1` ?
### Response 223 to 224 °C

### Prompt Would you mind telling me what melting point value was observed for `CN1CC(=O)Nc2cscc2C1=O` ?
### Response 263 to 265 °C

### Prompt Would you mind telling me what melting point value was observed for `CCCCCCCCCCCCCCOc1cccc(CBr)c1` ?
### Response 34 to 35 °C

* * *

Below: a set of entries, each annotated with reported melting point.

>  <compound>
CCCP(=O)(CCC)COS(=O)(=O)c1c(C)cccc1Cl

>  <observed_result>
51 to 53 °C

$$$$
>  <compound>
Cc1ccc(S(=O)(=O)N2CCCC2c2ccc(C(F)(F)F)cc2)cc1 (racemic)

>  <observed_result>
99 °C

$$$$
>  <compound>
CC(C)NC1=NS(=O)(=O)c2sc(Br)c(Br)c2N1

>  <observed_result>
250 to 251 °C

$$$$
>  <compound>
CCOC(=O)c1nnc(-c2ccc(Cl)cc2)o1

>  <observed_result>
117 to 118 °C

$$$$

Below: the item to evaluate.
### Prompt Would you mind telling me what melting point value was observed for `O=C(O)c1cc(SCC(=O)c2ccccc2)cc(C(F)(F)F)c1` ?
### Response 135 to 150 °C

* * *

quantity_name: melting point

>  <molecule>
CN(C)C=CC(=O)c1ccc(Cl)c(S(=O)(=O)N=CN(C)C)c1

>  <observed_result>
204 to 206 °C

$$$$
>  <molecule>
CNc1nc(-c2cccc(C#Cc3cccnc3)c2)c2cc(OC)c(OC)cc2n1

>  <observed_result>
103 to 105 °C

$$$$
>  <molecule>
CCCOc1c(C(=O)OCC)oc2ccc([N+](=O)[O-])cc12

>  <observed_result>
107 °C

$$$$
>  <molecule>
Nc1ccc(C(O)c2ccccn2)cc1 (stereo not given)

>  <observed_result>
139 to 140 °C

$$$$

Below: the item to evaluate.
### Prompt Would you mind telling me what melting point value was observed for `CCCc1nc2c(c(C)c(C)n3nnnc23)n1CC(C)(C)NC(=O)NC1CCCCC1` ?
### Response 196 to 198 °C
